The measurements presented in this section are drawn from PubChem BioAssay (NCI).

- System: M14 melanoma
- testMethodNotes: NCI-60 one-dose screen, 48 h
- testConditions: 10 µM unless noted
Compounds without any hit were thinned out: in the full panel of roughly 83,000, 20% have a hit. Active and inactive are the calls of the source. Rule for the calls: active = growth percent below 10; inactive = the rest.
# valid calls are 1 = active, 0 = inactive; nothing else

Any idea what this test logged for `Cc1ccc2c(c1)C(=O)/C(=C/c1cccc(OCC(=O)c3ccc(Cl)cc3)c1)CS2` ?
0

Any idea what this test logged for `C#Cc1cccc(NC(=O)c2ccccc2NC(=O)C=C)c1` ?
0

----------
- Test system: DU-145 prostate
- testMethodNotes: NCI-60 one-dose screen, 48 h
- testConditions: 10 µM unless noted
Compounds without any hit were thinned out: in the full panel of roughly 83,000, 20% have a hit. Active and inactive are the calls of the source. The calls were made as follows: active = growth percent below 10; inactive = the rest.
# valid calls are true = active, false = inactive; nothing else

Sample answers from the record:
compound: O=C1NC(=S)N[C@H]1CC(=O)n1cnc2ccccc21
discreteLabel: false
--
compound: Oc1cccc(-c2nc(N3CCOCC3)c3c4c(sc3n2)CCCC4)c1
discreteLabel: false
--
compound: N#Cc1c(-c2ccc(Cl)cc2)nc(NN=Cc2ccco2)nc1N1CCOCC1
discreteLabel: false

Any idea what this test logged for `CCCCN1CCCn2c1nc1c2c(=O)n(CCC)c(=O)n1CCC` ?
false

Any idea what this test logged for `CC(=O)OC[C@H]1O[C@H](OC(C)=O)[C@H](NC(=O)/C=C/CCl)[C@@H](OC(C)=O)[C@@H]1OC(C)=O` ?
false

Any idea what this test logged for `Cc1nc2c3c(-c4ccccc4)c(-c4ccccc4)oc3ncn2n1` ?
false

Any idea what this test logged for `Cn1cc(C(=O)c2nc(-c3c[nH]c4ccccc34)no2)c2ccccc21` ?
false

Any idea what this test logged for `Cc1nn(-c2ccc(F)cc2)c2ncnc(Oc3ccc(NC(=O)Nc4ccc(Cl)c(C(F)(F)F)c4)cc3)c12` ?
false

----------
Examples of compounds with documented growth follow.
- System: MDA-MB-435 melanoma
- testMethodNotes: NCI-60 one-dose screen, 48 h (100 = growth as untreated, 0 = no growth, -100 = all killed)
- testConditions: 10 µM unless noted
About 83,000 compounds went through this panel and 20% of them were active in at least one assay; those are over-represented in the sample as a whole.
State just the number; it will be interpreted in %.

Example compounds with recorded growth:
smilesRepresentation: N#CN1CCC[C@H]1C(=O)N1CCc2c(-c3[nH]nc4ncccc34)cccc21
unitsText: %
growth: -61.6
--
smilesRepresentation: Nc1nc2ccc3[nH]ncc3c2c2c1CCCC2
unitsText: %
growth: 6.3

Fill in: growth of `COc1ccc(-c2nc3ccc(-c4nc5ccc(N6CCN(c7ccncc7)CC6)cc5[nH]4)cc3[nH]2)cc1OC` is ___
31.4

Fill in: growth of `O=S(=O)(Nc1ccc(Cl)c(F)c1)c1ccc(-c2cnc(C3CC3)o2)cc1` is ___
3.28

Fill in: growth of `Cc1[nH]c(-c2cc(N)ccc2Cl)c2c1C(=O)CCCC2` is ___
15.5

Fill in: growth of `Fc1ccc2[nH]cc(SSc3c[nH]c4ccc(F)cc34)c2c1` is ___
46.2

Fill in: growth of `COc1ccc(CCNc2nc(SC)nc(-c3cccc([N+](=O)[O-])c3)c2C#N)cc1OC` is ___
87.7

Fill in: growth of `CC/C=C\C[C@H]1C/C=C2/C(=O)C=C[C@H]2C/C=C\CCCC(=O)O1` is ___
9.04

Fill in: growth of `CC1=C[C@H]2c3c(c(O)c(O)c4oc5cc(O)ccc5c(=O)c34)[C@H](c3cc(O)c(O)c4oc5cc(O)ccc5c(=O)c34)[C@H]2C(C)(C)C1` is ___
20

Fill in: growth of `CCOC(=O)n1cc(-c2nonc2-c2cn(C)c3ncccc23)c2ccccc21` is ___
50.2

Fill in: growth of `O=S(=O)(Nc1ccc(I)cc1F)c1ccc(-c2cnc(C3CC3)o2)cc1` is ___
2.11

Fill in: growth of `COc1ccc(-c2nn(-c3ccc(Cl)cc3)cc2-c2nc3ccccc3[nH]2)cc1` is ___
97.7

Fill in: growth of `COc1ccc(-c2cc(=O)c3c(OC)c4ccoc4cc3o2)cc1` is ___
89.6

Fill in: growth of `CC/C=C\C/C=C\C[C@H]1C/C=C2/C(=O)C=C[C@@H]2C/C=C\CCC(=O)O1` is ___
0.314

Fill in: growth of `COc1cccc(NC(=O)c2sc3nc(C)c(C(C)=O)cc3c2N)c1` is ___
-41.1

Fill in: growth of `O=C1/C(=C/c2cn(-c3ccccc3)nc2-c2ccccc2)SC(=S)N1CCc1ccccc1` is ___
97.6

Fill in: growth of `O=C(/C=C/c1ccccc1)c1ccc(O)c(CN2CCN(c3cc4c(cc3F)c(=O)c(C(=O)O)cn4C3CC3)CC2)c1` is ___
18.6

Fill in: growth of `COc1ccc2cc(-c3nn(-c4ccc(C(=O)O)cc4)cc3CO)ccc2c1` is ___
98.6

Fill in: growth of `Cc1nc(Nc2ccc(F)c(Cl)c2)sc1C(=O)O` is ___
20.4

Fill in: growth of `COc1ccc(S(=O)(=O)N2CCCCC2)cc1NC(=O)c1[nH]c(C)c2c1CCCCC2=O` is ___
21.7

----------
Examples of compounds with documented growth follow.
- Tested on: SNB-75 CNS
- testMethodNotes: NCI-60 one-dose screen, 48 h (100 = growth as untreated, 0 = no growth, -100 = all killed)
- testConditions: 10 µM unless noted
The panel holds about 83,000 compounds, 20% with a hit somewhere; the sample as a whole holds those more often. Calls of active or inactive are those of the source. Rule for the calls: active = growth percent below 10; inactive = the rest.

compound: COc1ccc(CCNc2nc3c(c(=O)n(Cc4ccc(Br)cc4)c(=O)n3C)n2C)cc1OC
assaySystem: SNB-75 CNS
growth: 84.5% (inactive)

Kindly state the measured growth obtained for `CC1=C[C@H]2c3c(c(O)c(O)c4oc5cc(O)ccc5c(=O)c34)[C@H](c3cc(O)c(O)c4oc5cc(O)ccc5c(=O)c34)[C@H]2C(C)(C)C1` with SNB-75 CNS.
21.3% (inactive)

Kindly state the measured growth obtained for CC1=C(O)C(=O)C(C(C#N)(C#N)C(C#N)C#N)C1 (configuration not stated) with SNB-75 CNS.
81.5% (inactive)

Kindly state the measured growth obtained for `CC[C@]1(O)C[C@@H]2CN(CCc3c([nH]c4ccccc34)[C@@](C(=O)OC)(c3cc4c(cc3OC)N(C)[C@H]3[C@@](O)(C(N)=O)[C@H](O)[C@]5(CC)[C@@H]6C[C@@H]6CN6CC[C@]43[C@@H]65)C2)C1` with SNB-75 CNS.
50.8% (inactive)

----------
- System: MDA-MB-435 melanoma
- testMethodNotes: NCI-60 one-dose screen, 48 h
- testConditions: 10 µM unless noted
- Description: Growth inhibition of the MDA-MB-435 human Melanoma tumor cell line is measured as a screen for anti-cancer activity. Cells are grown in 96 well plates and exposed to the test compound for 48 hours. Compounds are tested at a single concentration, which is 10^-5 M for most compounds. The reported endpoint is percent growth (GI% or GIPRCNT), where numbers from 0 - 100% represent growth inhibition, and numbers from -100% - 0 represent cell death. […]
About 83,000 compounds went through this panel and 20% of them were active in at least one assay; those are over-represented in the sample as a whole. The source made the active and inactive calls. How the source made its calls: active means growth percent below 10; inactive means the rest.
# valid calls are 1 (active), -1 (inactive); nothing else

Sample answers from the record:
molecule: O=C(CCl)Oc1ccc(-c2ccccc2)c(Br)c1
discreteLabel: -1
//
molecule: Cc1ccc(NC(=O)/C=C/c2ccccc2)c(C(N)=O)c1
discreteLabel: 1
//
molecule: COc1ccc(-c2nc3ccc(-c4nc5ccc(N6CCN(c7ccc(F)cc7)CC6)cc5[nH]4)cc3[nH]2)cc1OC
discreteLabel: -1
//
molecule: CC(C)CC1C(=O)N2CCC[C@H]2C2(O)O[C@](NC(=O)C3C=C4c5cccc6[nH]c(Br)c(c56)C[C@H]4N(C)C3)(C(C)C)C(=O)N12 (some centres not stated)
discreteLabel: -1
//
molecule: COc1ccc(SC2c3cc(OC)c(OC)cc3Oc3nc(N)c(C#N)c(N)c32)cc1 (configuration not stated)
discreteLabel: 1
//
molecule: CCCc1cc(=O)n2c(C(=O)Nc3ccc(F)cc3)c(C(=O)Nc3ccc(F)cc3)sc2n1
discreteLabel: -1
//
molecule: CC(=O)O[C@H]1[C@@H]2OC(=O)C(CSc3ccccc3)[C@@H]2C[C@H]2O[C@]2(C)CC/C=C(\C)CCC[C@@H]1C (some centres not stated)
discreteLabel: -1
//
molecule: CC1=CC(=NN=c2cc(C)n([O-])c(C)c2)C=C(C)[N+]1=O
discreteLabel: -1
//
molecule: Cn1cc(-c2nonc2-c2c[nH]c3ccccc23)c2cccnc21
discreteLabel: 1
//
molecule: COC(=O)c1ccc(NC(=O)c2ccc(-c3cccc([N+](=O)[O-])c3)o2)cc1
discreteLabel: -1

Any idea what this test logged for C/C1=C\CC[C@@]2(C)O[C@H]2[C@H]2OC(=O)C(CN3CCN(CC4C(=O)O[C@H]5[C@H]4CC/C(C)=C/CC[C@@]4(C)O[C@@H]54)CC3)[C@@H]2CC1 (some centres not stated) ?
-1

Any idea what this test logged for `CCCCC[C@H]1C/C=C2/C(=O)C=C[C@@H]2C/C=C\CCCC(=O)O1` ?
1

Any idea what this test logged for `O=C1/C(=C/c2ccc(Cl)cc2)SC(=S)N1CCc1ccc(O)cc1` ?
-1

Any idea what this test logged for `CC1(C)CC[C@]2(C(=O)Nc3ccccn3)CC[C@]3(C)C(=CC[C@@H]4[C@@]5(C)C/C(=C/c6cccnc6)C(=O)C(C)(C)[C@@H]5CC[C@]43C)[C@H]2C1` ?
-1
